Target: Notum (Homo sapiens, UniProt Q6P988, C330S)
Conditions: supplementary CSV
recorded_endpoint: LE
Just the number, please, no unit attached.

query: Fill blank: measured LE of the compound NCc1cc(-c2ccccc2)no1 is ____.
result: 0.53

====

Target: Notum (Homo sapiens, UniProt Q6P988, C330S)
Sequence (Q6P988 81-451 C330S): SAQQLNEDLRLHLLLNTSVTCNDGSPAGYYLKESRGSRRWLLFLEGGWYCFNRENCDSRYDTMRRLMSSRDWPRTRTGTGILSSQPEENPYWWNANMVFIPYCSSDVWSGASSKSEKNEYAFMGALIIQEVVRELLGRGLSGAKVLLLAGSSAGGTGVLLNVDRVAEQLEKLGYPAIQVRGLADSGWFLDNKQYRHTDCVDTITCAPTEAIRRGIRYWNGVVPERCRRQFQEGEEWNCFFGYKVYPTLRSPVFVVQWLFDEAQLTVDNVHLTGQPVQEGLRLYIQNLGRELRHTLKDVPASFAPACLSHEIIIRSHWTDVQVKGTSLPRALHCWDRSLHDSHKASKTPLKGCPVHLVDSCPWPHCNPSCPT
Assay: biochemical
Details: Notum IC50, OPTS substrate; 10-point curves 30 nM to 1 mM; mean ± s.d. of N = 2–4 unless stated; Table 1 and figures
recorded_endpoint: pIC50
In plain terms, pIC50 is the concentration in mol/L turned into minus its base-10 logarithm.

Consider the following illustrative entries.
>  <compound>
Cc1ccc(CN(C)Cc2ccccc2)o1 [compound 21]

>  <pIC50>
3.03

$$$$
>  <compound>
CCOc1cccc(-c2nnc(N)s2)c1 [compound 22]

>  <pIC50>
4.03

$$$$
>  <compound>
C[C@@H](Oc1ccc(-c2ccccc2)cc1)C(=O)O [compound 55]

>  <pIC50>
3.70

$$$$

query: Fill blank: measured pIC50 of the compound Nc1ccccc1OCc1ccccc1 [compound 13, 2-(Benzyloxy)aniline] is ____.
result: 3.55

query: Fill blank: measured pIC50 of the compound COC(=O)c1ccccc1Oc1ccc(N)cc1 [compound 6, Methyl 2-(4-aminophenoxy)benzoate] is ____.
result: 3.59

query: Fill blank: measured pIC50 of the compound NNC(=O)c1ccccc1OCc1ccccc1 [compound 34] is ____.
result: 3.48

query: Fill blank: measured pIC50 of the compound OCc1ccc(-n2cnc3ccccc32)cc1 [compound 4] is ____.
result: 4.27

====

Molecular target: Notum (Homo sapiens, UniProt Q6P988, C330S)
Test: biochemical
Details: IC50 (µM)
recorded_endpoint: IC50

query: Fill blank: measured IC50 of the molecule O=C(O)COCc1ccccc1 is ____.
result: > 1000 µM

====

Molecular target: Notum (Homo sapiens, UniProt Q6P988, C330S)
Conditions: LLE = pIC50 – clogP
Class membership depends on LLE (lipophilic ligand efficiency) alone; the intervals are LOW (below 0.9), MID (0.9 to below 2), HIGH (2 or more)

Look over these answered cases.
>  <item_smiles>
CCc1ccc(OCC(=O)N2CCCCC2)cc1

>  <class>
LOW

$$$$
>  <item_smiles>
Cc1ccc(C)c(OC(=O)c2ccncc2)c1

>  <class>
MID

$$$$
>  <item_smiles>
CCc1noc(C)c1C(=O)Nc1cc(C)on1

>  <class>
HIGH

$$$$
>  <item_smiles>
NCc1cc(-c2ccccc2)no1

>  <class>
HIGH

$$$$
>  <item_smiles>
Cc1ccc(CN(C)Cc2ccccc2)o1

>  <class>
LOW

$$$$

query: GET /class?item= COCC(=O)Nc1nc(-c2ccccc2)cs1
result: MID

query: GET /class?item= CC(=O)Nc1cccc2nonc12
result: HIGH

query: GET /class?item= CC1CCN(Cc2c[nH]c3ccccc23)CC1
result: LOW
